assay_remarks: physchem
condition_info: acetonitrile, organic solvent or mixture, thermodynamic from solid
measured_property: solubility at 24 h (mg/mL)
Please reply with the bare figure in mg/mL and do not write the unit itself.

Fill in the blank: the reported solubility at 24 h of CC(C)(O)CNc1nc(Nc2ccnc(C(F)(F)F)c2)nc(-c2cccc(C(F)(F)F)n2)n1 [Compound 1A] is ____. 0.5

* * *

assay_remarks: physchem
condition_info: 2-propanol, organic solvent or mixture, thermodynamic from solid
measured_property: solubility at 24 h (µg/mL)
Please reply with the bare figure in µg/mL and do not write the unit itself.

Fill in the blank: the reported solubility at 24 h of CC(C)(O)CNc1nc(Nc2ccnc(C(F)(F)F)c2)nc(-c2cccc(C(F)(F)F)n2)n1 [Compound 1A] is ____. 1400
